- Tested on: CAF#5 (primary prostate cancer-associated fibroblasts of myCAF-like type)
- protocol: drug sensitivity score (DSS2, normalised partial AUC of dose-response, 72 h CellTiter-Glo viability) (DSS (dimensionless)); higher = more sensitive (stronger growth inhibition / cytotoxicity); extreme values may be limits of the assay
Quick reference for drug sensitivity score among some molecules
# output: bare number, no unit

Completed entries (count: 5):
CC(C)Nc1cc(-c2c[nH]c(C(=O)N[C@H](CO)c3cccc(Cl)c3)c2)c(Cl)cn1 [Ulixertinib] (tested concentration range 1-10000 nM)    0.3
CC1(COc2ccc3c(c2)ncn3-c2ccc3cccc(N4CCC(N)CC4)c3n2)COC1 [Crenolanib] (tested concentration range 1-10000 nM)    9.3
CC(=O)c1c(C)c2cnc(Nc3ccc(N4CCNCC4)cn3)nc2n(C2CCCC2)c1=O [Palbociclib] (tested concentration range 1-10000 nM)    4.9
Cc1ncc(-c2ccnc(Nc3ccc(S(C)(=O)=O)cc3)n2)n1C(C)C [AZD-5438] (tested concentration range 1-10000 nM)    2.9
CS(=O)(=O)c1ccc(C(=O)Nc2ccc(Cl)c(-c3ccccn3)c2)c(Cl)c1 [Vismodegib] (tested concentration range 1-10000 nM)    0

In: GET /values?readout=drug sensitivity score&system=CAF#5&item= CC[C@@H]1C(=O)N(C)c2cnc(Nc3ccc(C(=O)N[C@H]4CC[C@H](N5CCN(CC6CC6)CC5)CC4)cc3OC)nc2N1C(C)C [Volasertib] (tested concentration range 0.1-1000 nM)
Out: 1.7

In: GET /values?readout=drug sensitivity score&system=CAF#5&item= CC(O)c1cc(C(=O)N[C@@H](C)Cn2ccc(-c3ccc(C#N)c(Cl)c3)n2)n[nH]1 (stereo partly specified) [Darolutamide] (tested concentration range 0.2-2500 nM)
Out: 2.9

In: GET /values?readout=drug sensitivity score&system=CAF#5&item= CCN(CC)CCNC(=O)c1c(C)[nH]c(/C=C2\C(=O)Nc3ccc(-c4csc(-c5ccccc5)n4)cc32)c1C [Amcasertib] (tested concentration range 1-10000 nM)
Out: 6.6

In: GET /values?readout=drug sensitivity score&system=CAF#5&item= C1=N/C2=N/c3ccc(OCCN4CCCC4)c(c3)COC/C=C/COCc3cccc(c3)C(=C1)N2 [Pacritinib] (tested concentration range 1-10000 nM)
Out: 7.3

In: GET /values?readout=drug sensitivity score&system=CAF#5&item= CO[C@H]1CC[C@H](N2C(=O)CNc3ncc(-c4ccc(C(C)(C)O)nc4)nc32)CC1 [ATG-008] (tested concentration range 1-10000 nM)
Out: 7.4

In: GET /values?readout=drug sensitivity score&system=CAF#5&item= CC[C@H](CO)Nc1nc(NCc2ccccc2)c2ncn(C(C)C)c2n1 [Seliciclib] (tested concentration range 1-10000 nM)
Out: 2

In: GET /values?readout=drug sensitivity score&system=CAF#5&item= Nc1cc(F)ccc1NC(=O)/C=C/c1cnn(C/C=C/c2ccccc2)c1 [RGFP966] (tested concentration range 1-10000 nM)
Out: 3.1

In: GET /values?readout=drug sensitivity score&system=CAF#5&item= COc1cc2/c(=N/c3ccc(Br)cc3F)nc[nH]c2cc1OCC1CCN(C)CC1 [Vandetanib] (tested concentration range 0.1-1000 nM)
Out: 4.4

In: GET /values?readout=drug sensitivity score&system=CAF#5&item= CO[C@H]1C[C@@H]2CC[C@@H](C)[C@@](O)(O2)C(=O)C(=O)N2CCCC[C@H]2C(=O)O[C@H]([C@H](C)C[C@@H]2CC[C@@H](OC(=O)C(C)(CO)CO)[C@H](OC)C2)CC(=O)[C@H](C)/C=C(\C)[C@@H](O)[C@@H](OC)C(=O)[C@H](C)C[C@H](C)/C=C/C=C/C=C/1C [Temsirolimus] (tested concentration range 0-100 nM)
Out: 11.8

In: GET /values?readout=drug sensitivity score&system=CAF#5&item= CNC(=O)c1ccc(N2C(=S)N(c3ccc(C#N)c(C(F)(F)F)c3)C(=O)C2(C)C)cc1F [Enzalutamide] (tested concentration range 1-10000 nM)
Out: 2.8

In: GET /values?readout=drug sensitivity score&system=CAF#5&item= CN1CC[C@H](c2c(O)cc(O)c3c(=O)cc(-c4ccccc4Cl)oc23)[C@H](O)C1 [Alvocidib] (tested concentration range 1-10000 nM)
Out: 15.4

In: GET /values?readout=drug sensitivity score&system=CAF#5&item= COc1nc(N)nc2c1ncn2[C@@H]1O[C@H](CO)[C@@H](O)[C@@H]1O [Nelarabine] (tested concentration range 1-10000 nM)
Out: 0

In: GET /values?readout=drug sensitivity score&system=CAF#5&item= CON(C)C(=O)N1N=C(c2cc(F)ccc2F)S[C@@]1(CCCN)c1ccccc1 [Filanesib] (tested concentration range 0.1-1000 nM)
Out: 3.9

In: GET /values?readout=drug sensitivity score&system=CAF#5&item= CN1CCN(c2cc(C(=O)Nc3ccc4c(c3)-c3c(c(C(N)=O)nn3-c3ccc(F)cc3)CC4)c(Cl)cn2)CC1 [PHA 408] (tested concentration range 1-10000 nM)
Out: 5.9

In: GET /values?readout=drug sensitivity score&system=CAF#5&item= CCCS(=O)(=O)Nc1ccc(F)c(C(=O)c2c[nH]c3ncc(-c4ccc(Cl)cc4)cc23)c1F [Vemurafenib] (tested concentration range 1-10000 nM)
Out: 4.7

In: GET /values?readout=drug sensitivity score&system=CAF#5&item= Cc1nc(Nc2ncc(C(=O)Nc3c(C)cccc3Cl)s2)cc(N2CCN(CCO)CC2)n1 [Dasatinib] (tested concentration range 0.1-1000 nM)
Out: 15.2
